Biological target: UniProtKB P32248
Sequence (P32248 whole entry): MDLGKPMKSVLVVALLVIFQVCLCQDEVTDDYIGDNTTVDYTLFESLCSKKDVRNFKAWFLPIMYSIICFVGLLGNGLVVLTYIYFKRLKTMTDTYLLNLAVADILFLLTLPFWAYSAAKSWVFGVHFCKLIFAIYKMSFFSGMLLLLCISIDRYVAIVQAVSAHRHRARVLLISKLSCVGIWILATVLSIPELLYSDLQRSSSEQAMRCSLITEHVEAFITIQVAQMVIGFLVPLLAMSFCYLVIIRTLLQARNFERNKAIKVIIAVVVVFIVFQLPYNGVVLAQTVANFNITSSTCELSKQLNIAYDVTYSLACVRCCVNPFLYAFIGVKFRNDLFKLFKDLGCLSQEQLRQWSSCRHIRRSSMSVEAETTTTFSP
PARAMETER: IC50 (nM)
Numbers only, in nM.

// recorded IC50 for Cc1ccc(-c2ccc3c(c2)C=C(C(=O)Nc2ccc(C[N+](C)(C)C4CCOCC4)cc2)CCC3)cc1 : 1.4
